Target: Recombinant human ATX (Homo sapiens (Human), UniProt Q13822)
Assay: Assessing ATX inhibition (choline release, Amplex Red fluorescence)
Details: ATX 10 nM, LPC 18:1 10 μM, pre-incubated at 37° C. for 20 minutes; mean of n≥2
Procedure: Reagents—LPC (oleoyl (18:1)) was purchased from Avanti Polar Lipids (Alabaster, Ala.) and solubilized in methanol to 20 mM. Amplex Red was obtained from Invitrogen Life Technologies (Paisley, UK) and dissolved in DMSO to 10 mM. […] Assessing ATX inhibition—ATX activity was determined by measurement of released choline in reactions containing ATX (10 nM), choline oxidase (0.1 U/ml), HRP (100 U/ml), amplex red (50 μM) and LPC 18:1 (10 μM). […]
value kind: IC50 (nM)
Report the figure in nM without appending any unit label.

Check out these entries, answers already filled in.
{"smiles string": "Cc1nnn(Cc2cc(Cl)ccc2/C=C/C(=O)N2CCN(Cc3ccc(OCCF)cn3)C[C@H]2C)n1", "IC50 [nM]": 4}
{"smiles string": "COc1cc(CN2CCN(C(=O)/C=C/c3ccc(Cl)cc3Cn3nnc(C)n3)CC2)ccn1", "IC50 [nM]": 13}

Inquiry: Name the reported IC50 value associated with the compound Cc1nnn(Cc2cc(C(F)(F)F)ccc2CCC(=O)N2CCN(Cc3ccc(OCCF)cn3)C[C@H]2C)n1
Reply text: 2

Inquiry: Now consider Cc1nnn(Cc2cc(C(F)(F)F)ccc2/C=C/C(=O)N2CCN(Cc3ccc(OCCF)cn3)C[C@H]2C)n1 and answer again.
Reply text: 3

Inquiry: Try Cc1nnn(Cc2cc(C(F)(F)F)ccc2/C=C/C(=O)N2CCN(Cc3ccc(OCCOCCF)cn3)C[C@H]2C)n1 next.
Reply text: 6

Inquiry: Same read-out for Cc1nnn(Cc2cc(Cl)ccc2/C=C/C(=O)N2CCN(Cc3ccc(OCCOCCF)cn3)C[C@H]2C)n1 ?
Reply text: 5

Inquiry: Quick one: Cc1nnn(Cc2cc(C(F)(F)F)ccc2/C=C/C(=O)N2CCN(Cc3coc(CF)n3)C[C@H]2C)n1
Reply text: 1.4
